- Assayed target: human mAChR M4 (Homo sapiens, UniProt P08173)
- Protocol notes: mAChR M4 cell-based functional assay: calcium mobilization (Fluo-4, FDSS), potentiation of EC20 acetylcholine response in hM4-Gqi5 CHO-K1 cells
- Measurement parameters: potentiation of EC20 acetylcholine response, calcium mobilization, human M4
Quantity kind: pEC50
Reminder that pEC50 is minus the log10 of a molar concentration.

Worked examples, 10 compounds total:
COCc1cc(=O)n2nc(N3CCc4ncc(-c5ccc(C)o5)cc4C3)c(C)cc2n1 6.53
Cc1c(N2CCc3ncc(-c4cccnc4)cc3C2)nn2c(=O)cc(C(F)F)nc2c1C 7.21
CCc1cc(=O)n2nc(N3CCc4ncc(C(F)(F)F)cc4C3)c(C)c(C)c2n1 6.79
Cc1cc(=O)n2nc(N3CCc4ncc(-c5cncc(C(F)(F)F)c5)cc4C3)c(C)c(C)c2n1 5.47
Cc1ccc(-c2cnc3c(c2)CN(c2nn4c(=O)cc(C)nc4cc2C)CC3)cc1 6.48
Cc1cc(=O)n2nc(N3CCc4ncc(-c5cccnc5C)cc4C3)c(C)c(C)c2n1 5.53
Cc1c(N2CCc3ncc(-c4cncnc4)cc3C2)nn2c(=O)cc(C(F)F)nc2c1C 5.51
Cc1c(N2CCc3ncc(-c4cncc(C#N)c4)cc3C2)nn2c(=O)ccnc2c1C 6.21
Cc1cc2nccc(=O)n2nc1N1CCc2ncc(NCC3CCOCC3)cc2C1 5.74
Cc1c(N2CCc3ncc(N4CCCn5nccc54)cc3C2)nn2c(=O)ccnc2c1C 7.89

In: # query: pEC50 of entry COc1cc(C)c(-c2cnc3c(c2)CN(c2nn4c(=O)ccnc4cc2C)CC3)cn1
Out: 7.34

In: # query: pEC50 of entry [2H]C1([2H])Cc2ncc(Nc3ccccc3F)cc2C([2H])([2H])N1c1nn2c(=O)ccnc2cc1C
Out: 8.70

In: # query: pEC50 of entry Cc1cc(Cl)c(-c2cnc3c(c2)CN(c2nn4c(=O)cc(C(F)F)nc4c(C)c2C)CC3)cn1
Out: 6.96

In: # query: pEC50 of entry Cc1cc(=O)n2nc(N3CCc4ncc(N5CCOc6ncccc65)cc4C3)c(C)cc2n1
Out: 8.05

In: # query: pEC50 of entry Cc1cc2nccc(=O)n2nc1N1CCc2ncc(-c3ccnc(C4CC4)c3)cc2C1
Out: 6.32

In: # query: pEC50 of entry COc1cnccc1-c1cnc2c(c1)CN(c1nn3c(=O)ccnc3cc1C)CC2
Out: 6.16

In: # query: pEC50 of entry Cc1cc2nc(C)c(Cl)c(=O)n2nc1N1CCc2ncc(C(F)(F)F)cc2C1
Out: 7.40

In: # query: pEC50 of entry Cc1cc(=O)n2nc(N3CCc4ncc(-c5cc(F)c(F)cc5F)cc4C3)c(C)cc2n1
Out: 6.29

In: # query: pEC50 of entry Cc1cc(C)c(-c2cnc3c(c2)CN(c2nn4c(=O)ccnc4cc2C)CC3)cn1
Out: 6.59

In: # query: pEC50 of entry COc1cnccc1-c1cnc2c(c1)CN(c1nn3c(=O)cc(C)nc3cc1C)CC2
Out: 6.35

In: # query: pEC50 of entry COCc1cc(=O)n2nc(N3CCc4ncc(-c5ccc(OC(F)F)nc5)cc4C3)c(C)cc2n1
Out: 6.64

In: # query: pEC50 of entry Cc1cc(=O)n2nc(N3CCc4ncc(N5CCC6(CC5)COC6)cc4C3)c(C)c(C)c2n1
Out: 5.67

In: # query: pEC50 of entry COCc1cc(=O)n2nc(N3CCc4ncc(-c5cnn(C6CC6)c5)cc4C3)c(C)cc2n1
Out: 6.53

* * *

- Assayed target: human mAChR M4 (Homo sapiens)
- Construct: expressed in transfected cells; host or cells: CHO-K1 (American Type Culture Collection), stably expressing hM4 and Gqi5
- Protocol notes: mAChR M4 cell-based functional assay: calcium mobilization (Fluo-4, FDSS), potentiation of EC20 acetylcholine response in hM4-Gqi5 CHO-K1 cells
- Measurement parameters: CHO-K1, % ACh maximum at 30 μM; human M4
Known Emax at 30 µM of a selection of compounds

Worked examples, 4 compounds total:
Cc1ccc(-c2cnc3c(c2)CN(c2nn4c(=O)cc(C(F)(F)F)nc4c(C)c2C)CC3)cn1 101%
Cc1cc(=O)n2nc(N3CCc4ncc(-c5cnn(CC(F)(F)F)c5)cc4C3)c(C)cc2n1 82%
COCc1cc(=O)n2nc(N3CCc4ncc(-c5cncnc5)cc4C3)c(C)cc2n1 59%
Cc1cc(=O)n2nc(N3CCc4ncc(-c5cc(F)ncc5F)cc4C3)c(C)cc2n1 67%

In: # query: Emax at 30 µM of entry Cc1ccc(-c2cnc3c(c2)CN(c2nn4c(=O)c(Br)cnc4cc2C)CC3)cn1
Out: 79%

In: # query: Emax at 30 µM of entry COCc1cc(=O)n2nc(N3CCc4ncc(-c5ccc(CO)s5)cc4C3)c(C)cc2n1
Out: 99%

In: # query: Emax at 30 µM of entry Cc1c(N2CCc3ncc(-c4cncc(C#N)c4)cc3C2)nn2c(=O)ccnc2c1C
Out: 64%

In: # query: Emax at 30 µM of entry Cc1cc(=O)n2nc(N3CCc4ncc(-c5cnn(C6CC6)c5)cc4C3)c(C)cc2n1
Out: 76%

* * *

Known EC50 of a selection of compounds
- Assayed target: human mAChR M4 (Homo sapiens)
- Protocol notes: mAChR M4 cell-based functional assay: calcium mobilization (Fluo-4, FDSS), potentiation of EC20 acetylcholine response in hM4-Gqi5 CHO-K1 cells
- Measurement parameters: potentiation of EC20 acetylcholine response, calcium mobilization, human M4
Give the number; nM is assumed, so skip it.

Worked examples, 3 compounds total:
Cc1cc2nccc(=O)n2nc1N1CCc2ncc(-c3ccc(OC(F)F)nc3)cc2C1 448
Cc1cc(OC(F)F)ncc1-c1cnc2c(c1)CN(c1nn3c(=O)ccnc3cc1C)CC2 716
Cc1cccnc1-c1cnc2c(c1)CN(c1nn3c(=O)ccnc3cc1C)CC2 2600

In: # query: EC50 of entry Cc1c(N2CCc3ncc(-c4cnc(Cl)c(F)c4)cc3C2)nn2c(=O)ccnc2c1C
Out: 399

* * *

- Assayed target: human mAChR M4 (Homo sapiens, UniProt P08173)
- Construct: expressed in transfected cells; host or cells: CHO-K1 (American Type Culture Collection), stably expressing hM4 and Gqi5
- Protocol notes: mAChR M4 cell-based functional assay: calcium mobilization (Fluo-4, FDSS), potentiation of EC20 acetylcholine response in hM4-Gqi5 CHO-K1 cells
- Measurement parameters: CHO-K1, % ACh maximum at 30 μM; human M4
Kind request: treat 90% as inclusive, so Emax at 30 µM at 90% or higher is met, anything lower is not met.

Compound	Qualitative label
Cc1cc2nccc(=O)n2nc1N1CCc2ncc(NCc3cscn3)cc2C1	not met
Cc1nc2c(C)c(C)c(N3CCc4ncc(C(F)(F)F)cc4C3)nn2c(=O)c1F	met
COc1cncc(-c2cnc3c(c2)CN(c2nn4c(=O)cc(C(F)(F)F)nc4cc2C)CC3)c1	met
Cc1cc2nccc(=O)n2nc1N1CCc2ncc(N3CCOC(c4cccnc4)C3)cc2C1 (centres unmarked)	not met
Cc1cc(Nc2cnc3c(c2)CN(c2nn4c(=O)ccnc4cc2C)CC3)cnc1Cl	met

In: Please tell me: is the compound Cc1cc2nc(C(F)F)cc(=O)n2nc1N1CCc2ncc(C(F)(F)F)cc2C1 at or over 90% in terms of Emax at 30 µM?
Out: not met

In: Please tell me: is the compound Cc1ccc(-c2cnc3c(c2)CN(c2nn4c(=O)cc(C)nc4c(C)c2C)CC3)cn1 at or over 90% in terms of Emax at 30 µM?
Out: met

* * *

Known Emax at 30 µM of a selection of compounds
- Assayed target: human mAChR M4 (Homo sapiens)
- Construct: expressed in transfected cells; host or cells: CHO-K1 (American Type Culture Collection), stably expressing hM4 and Gqi5
- Sequence (P08173 1-479): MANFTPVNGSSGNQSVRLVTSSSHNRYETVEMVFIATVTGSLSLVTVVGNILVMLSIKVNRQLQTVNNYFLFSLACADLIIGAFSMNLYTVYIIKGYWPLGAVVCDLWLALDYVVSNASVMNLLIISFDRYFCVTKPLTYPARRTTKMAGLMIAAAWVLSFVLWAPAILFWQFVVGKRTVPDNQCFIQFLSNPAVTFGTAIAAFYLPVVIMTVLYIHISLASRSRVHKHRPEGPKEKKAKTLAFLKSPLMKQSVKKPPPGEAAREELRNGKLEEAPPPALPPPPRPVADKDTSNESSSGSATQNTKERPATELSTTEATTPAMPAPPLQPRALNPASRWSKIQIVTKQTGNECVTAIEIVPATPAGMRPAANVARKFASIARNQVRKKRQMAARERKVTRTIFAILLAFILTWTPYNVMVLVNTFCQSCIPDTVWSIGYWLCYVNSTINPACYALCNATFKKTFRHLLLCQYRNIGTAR
- Protocol notes: mAChR M4 cell-based functional assay: calcium mobilization (Fluo-4, FDSS), potentiation of EC20 acetylcholine response in hM4-Gqi5 CHO-K1 cells
- Measurement parameters: CHO-K1, % ACh maximum at 30 μM; human M4
Reply with the number, then its unit.

Worked examples, 3 compounds total:
Cc1cc2nccc(=O)n2nc1N1CCc2ncc(-c3ncsc3C)cc2C1 83%
Cc1cc(=O)n2nc(N3CCc4ncc(-c5ccc(F)nc5)cc4C3)c(C)c(C)c2n1 92%
Cc1cc(F)ncc1-c1cnc2c(c1)CN(c1nn3c(=O)ccnc3c(C)c1C)CC2 89%

In: # query: Emax at 30 µM of entry Cc1cc2nccc(=O)n2nc1N1CCc2ncc(N3CC(C)(C)Oc4ccccc43)cc2C1
Out: 80%

In: # query: Emax at 30 µM of entry Cc1cc2nccc(=O)n2nc1N1CCc2ncc(C(F)(F)F)cc2C1
Out: 81%

In: # query: Emax at 30 µM of entry Cc1cscc1-c1cnc2c(c1)CN(c1nn3c(=O)ccnc3cc1C)CC2
Out: 86%
